The origin of these recorded values is PubChem BioAssay (NCI).

Listed next: entries and their corresponding TGI.
- Test system: MALME-3M melanoma
- runDescription: NCI tumour cell line growth inhibition, 48 h

Known TGI results, listed for orientation:
>>> testresult("CCN(CC)CCC(=O)/C=C/c1ccc(Cl)c(Cl)c1")
"> 10 µM"
>>> testresult("CNC(=O)[C@H](Cc1c[nH]c2ccccc12)NC(=O)[C@@H](CC(=O)NO)CC(C)C")
"> 25 µM"
>>> testresult("COC(=O)c1ccc(OCCn2nnc(C(=O)NN)c2C(=O)NN)cc1")
"> 100 µM"

For the next question, use this molecule.
Q: TGI for N=C1OC(CN2CCN(c3ccccc3)CC2)CN1C(=O)Nc1ccccc1 (centres undefined) ?
Ans: > 100 µM
